Measurement description: Restrictive medium S. cerevisiae growth inhibition, OD615, pilot screen of yeast lifespan reduction project, restrictive growth control (AID 706);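 also: modified DeaD lifespan yeast strain shifted to restrictive glucose medium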
Assay context: OD615, 48 h, at 10 µM, stronger effect = higher value
Measure name: growth inhibition (%)

INSERT INTO assay_data (compound, measure_name, endpoint_result) VALUES
  ('Cc1ccc(OCC(=O)O)c(-n2nc3ccccc3n2)c1', 'growth inhibition', 0.43),
  ('Cc1ccc(CSc2nnc(Cn3c(=O)sc4ccccc43)n2C)cc1', 'growth inhibition', 5.88),
  ('COc1ccc(Br)cc1C1CC(=O)N2CN(Cc3ccccc3)CSC2=C1C#N (stereo unspecified)', 'growth inhibition', 12.8),
  ('O=S(=O)(c1cc(Cl)ccc1Cl)N1CCN(Cc2ccc3c(c2)OCO3)CC1', 'growth inhibition', -8.86),
  ('COc1cccc(-n2nnc3c(=O)n(CC(=O)NCC4CCCO4)cnc32)c1 (stereo unspecified)', 'growth inhibition', -2.83),
  ('CC(C)C(=O)Nc1nnc(-c2ccccc2)o1', 'growth inhibition', -0.51);

* * *

Readings of growth inhibition for the listed molecules
Measurement description: OD615 S. cerevisiae growth inhibition, permissive medium, pilot counter-assay, permissive growth control for S. cerevisiae lifespan shortening project (AID 705)
Assay context: OD615, 24 h, at 10 µM, stronger effect = higher value
Measure name: growth inhibition (%)

INSERT INTO results (molecule, measure_name, endpoint_result) VALUES
  ('Cc1nn(C)c(C)c1S(=O)(=O)N(CC(=O)Nc1ccc2c(c1)OCO2)c1ccc(C(C)C)cc1', 'growth inhibition', -19.5),
  ('CCn1cc(SCC(N)=O)c2ccccc21', 'growth inhibition', -13.8),
  ('O=C(c1oc(=O)c2ccccc2c1-c1ccccc1)N1CCN(C2CCCCC2)CC1', 'growth inhibition', -7.33),
  ('O=C(CSc1nc(-c2ccco2)cc(C(F)(F)F)n1)NC1CCCC1', 'growth inhibition', -9.81),
  ('CCOC(=O)C1=C(CS(=O)(=O)c2ccccc2)NC(=O)NC1c1ccccc1OCC (centres undefined)', 'growth inhibition', -15.1),
  ('CC(C)C(=O)N=c1sc2cc(F)cc(F)c2n1C', 'growth inhibition', -9.84),
  ('O=C(COc1ccc(Cl)cc1)OCC(=O)N1CCCC1', 'growth inhibition', -6.8),
  ('Cc1nc2ccccc2c2oc(C(=O)Nc3ccc4c(c3)OCCO4)cc12', 'growth inhibition', 6.06),
  ('O=C(CS(=O)(=O)c1cn(Cc2ccccc2Cl)c2ccccc12)N1CCOCC1', 'growth inhibition', -3.44),
  ('CCCc1n[nH]c2c1C(=O)C(C(=O)OC)C(C)(C)C2 (centres undefined)', 'growth inhibition', -12.6),
  ('CCn1c(C(C)NC(=O)c2cccs2)nc2ccccc21 (centres undefined)', 'growth inhibition', -1.68),
  ('Cc1cc(Nc2cc(C(=O)O)ccc2C)n2ncnc2n1', 'growth inhibition', 4.96),
  ('O=c1cc(N2CCOCC2)[nH]c(=O)n1Cc1ccc(F)cc1', 'growth inhibition', 5.3),
  ('COc1ccc(C2(CNC(C)=O)CCOCC2)cc1OC', 'growth inhibition', -14.1),
  ('O=C(O)Cc1ccc(NC(=O)C2CCCCC2C(=O)O)cc1 (centres undefined)', 'growth inhibition', -15),
  ('Cc1c(Br)cc(C(=O)N2CCCC2)c(C)c1C', 'growth inhibition', -12.7),
  ('CC(=NCc1ccccc1)C1=C(O)COC1=O', 'growth inhibition', 5.52),
  ('CCOC(=O)c1cnc2c(C)c(Cl)ccc2c1N1CCOCC1', 'growth inhibition', -1.27),
  ('CCOC(=O)N1CCN(C(=O)CCSc2ccccc2)CC1', 'growth inhibition', 2.04),
  ('CCCc1ccc(-c2ccc(C(=O)O)cc2)nc1', 'growth inhibition', 8.77),
  ('CC1(C)CC(=O)c2sc(NC(=O)c3ccco3)nc2C1', 'growth inhibition', -15),
  ('C=CCOc1ccc(/C(O)=C2/C(=O)C(=O)N(CCCn3ccnc3)C2c2cccs2)cc1 (centres undefined)', 'growth inhibition', -13.8),
  ('CCOc1ccc(NC2CCN(C(C)=O)CC2)cc1', 'growth inhibition', -12.8),
  ('CCOC(=O)c1ccc(N2C(=O)CC(N3CCN(Cc4ccccc4)CC3)C2=O)cc1 (centres undefined)', 'growth inhibition', -18.6);

* * *

Measurement description: OD615 S. cerevisiae growth inhibition, permissive medium, pilot counter-assay, permissive growth control for S. cerevisiae lifespan shortening project (AID 705)
Assay context: OD615, 24 h, at 10 µM, stronger effect = higher value
The entries below come with measured growth inhibition values attached.
Measure name: growth inhibition (%)

INSERT INTO assay_data (molecule, endpoint_result) VALUES
  ('O=S(=O)(NCCCN1CCN(c2ccccc2F)CC1)c1cccc2cccnc12', -1.96),
  ('CCOC(=O)CCSCC(=O)Nc1nnc(C)s1', -1.14),
  ('CCCC(=O)Nc1nc2ccc(OCC)cc2s1', -2.23),
  ('c1ccc2c(c1)CCN(c1nc3ccccc3n3cnnc13)C2', -1.93),
  ('Cc1ccc(C)c(S(=O)(=O)NC(CC(C)C)C(=O)O)c1 (stereo not drawn)', -9.28),
  ('CCCOC(=O)C1=C(C)NC2=C(C(=O)C(C(=O)OC)C(C)C2)C1c1ccc(N(CC)CC)cc1 (stereo not drawn)', -10.6),
  ('CCCc1nc(C)c(-c2ccc(OC)c(OC)c2)c(=O)[nH]1', -17.9),
  ('CC1CCN(CCCNC(=O)CN2CCN(Cc3ccc(Cl)cc3)C2=O)CC1', -8.6),
  ('COc1cccc(C2c3c(oc4cc(C)c(C)cc4c3=O)C(=O)N2CCCN(C)C)c1 (stereo not drawn)', -8.88),
  ('CCN1CCN(C(=O)CSCc2nc(-c3ccc(OC)c(OC)c3)oc2C)CC1', -3.83),
  ('COc1ccc(NC(=O)Cc2nc3ccccc3[nH]2)cc1', 0.43),
  ('COc1cccc(-c2nc(CS(=O)(=O)CC(=O)NCc3ccccc3OC)c(C)o2)c1', 5.72),
  ('CCN(C(=O)c1sc(N)c(C#N)c1C)C1CCCCC1', -1.28),
  ('O=C(NCc1ccc2c(c1)OCO2)Oc1ccccc1', -1.34),
  ('CCOC(=O)CNC(=O)c1cn(CC(C)C)c(=O)c2cc(OC)c(OC)cc12', -5.46),
  ('COc1ccc(OC)c(NC(=O)c2nnn(CCc3ccccc3)c2N)c1', -5.97),
  ('CCOC(=O)c1[nH]c2ccccc2c1NC(=O)CC(C)(C)C', 5.14),
  ('CC1=C(C(=O)OC(C)C)C(c2cccnc2)n2ncnc2N1 (stereo not drawn)', -6.7),
  ('COc1ccc(OC)c(NC(=O)C2CCCNC2=O)c1 (stereo not drawn)', -6.08),
  ('Cn1cccc1Cc1nnc(SCC(=O)NC2CCCCC2)n1-c1ccc(F)cc1', 1.67),
  ('C/C=C/Cn1c(N(C)Cc2ccccc2)nc2c1c(=O)[nH]c(=O)n2C', -17.4),
  ('O=C(NC1CCCC1)c1ccc(CS(=O)(=O)c2ccc(Br)cc2)o1', -3.78),
  ('CCOC(=O)C1=C(C)NC(=O)NC1c1ccc(N(C)C)cc1 (stereo not drawn)', -12.3);

* * *

Measurement description: Restrictive medium S. cerevisiae growth inhibition, OD615, pilot screen of yeast lifespan reduction project, restrictive growth control (AID 706);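 also: modified DeaD lifespan yeast strain shifted to restrictive glucose medium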
Assay context: OD615, 48 h, at 10 µM, stronger effect = higher value
Measure name: growth inhibition (%)

INSERT INTO results (compound, endpoint_result) VALUES
  ('O=c1nc(-c2ccccc2)cn[nH]1', -4.27),
  ('CCn1cc(S(=O)(=O)CC(=O)Nc2cc(C)ccc2C)c2ccccc21', -1.18),
  ('C=C(C)Cn1c(C2CC(=O)N(c3ccccc3F)C2)nc2ccccc21 (stereo unspecified)', -5.32),
  ('O=C(CSc1nccn1-c1ccc(Cl)cc1)NCc1ccc2c(c1)OCO2', -8.19),
  ('O=C(CC(=O)N1CCN(c2ccccn2)CC1)Nc1ccc2nc3n(c(=O)c2c1)CCCCC3', -3.46),
  ('Cc1cc(C)n(S(=O)(=O)c2ccc(Cl)c(Cl)c2Cl)n1', 4.29);

* * *

Property: growth inhibition; scope: individual compounds
Measurement description: OD615 S. cerevisiae growth inhibition, permissive medium, pilot counter-assay, permissive growth control for S. cerevisiae lifespan shortening project (AID 705)
Assay context: OD615, 24 h, at 10 µM, stronger effect = higher value
Measure name: growth inhibition (%)

INSERT INTO results (compound, measure_name, unit_of_measurement, endpoint_result) VALUES
  ('COc1ccc(S(=O)(=O)N2CCN(C)CC2)cc1Br', 'growth inhibition', '%', -1.05),
  ('COc1ccccc1CNC(=O)c1nnc(Cc2ccc(Cl)cc2)o1', 'growth inhibition', '%', -9.86),
  ('O=C(CCSCCC(=O)NCc1cccs1)NCc1cccs1', 'growth inhibition', '%', -5.92),
  ('O=C(Cn1cnc2ccccc2c1=O)N(Cc1ccco1)c1ccc(O)cc1', 'growth inhibition', '%', -4.45),
  ('COc1ccc(C2C(C(=O)Nc3ccccc3OC)=C(C)Nc3ncnn32)cc1 (configuration not stated)', 'growth inhibition', '%', -18.5),
  ('Cn1c(=NC(=O)C2CC2)sc2cccc(F)c21', 'growth inhibition', '%', -10.3),
  ('O=C(Oc1ccnc2cc(Cl)ccc12)N1CCOCC1', 'growth inhibition', '%', -4.51),
  ('Cc1nc2sc(C(c3ccccc3)N3CCN(C)CC3)c(O)n2n1 (configuration not stated)', 'growth inhibition', '%', -3.65),
  ('CCCCn1c(CN2CCOCC2)nc2c1c(=O)n(C)c(=O)n2C', 'growth inhibition', '%', -1.51),
  ('O=C1c2oc3ccccc3c(=O)c2C(c2cccc(O)c2)N1c1ccccn1 (configuration not stated)', 'growth inhibition', '%', -7.62),
  ('O=C(/C=C\Nc1ccccn1)c1ccc(Cl)cc1', 'growth inhibition', '%', -7.61),
  ('COCc1cc(C)nc2sc(C(=O)N3CCN(c4ccccc4)CC3)c(N)c12', 'growth inhibition', '%', -3.52);
